Data provenance is PubChem BioAssay (NCI).

- Test system: UO-31 renal
- METHOD_DESCRIPTION: NCI-60 one-dose screen, 48 h (100 = growth as untreated, 0 = no growth, -100 = all killed)
- TEST_PARAMETERS: 10 µM unless noted
About 83,000 compounds went through this panel and 20% of them were active in at least one assay; those are over-represented in the sample as a whole.
Rule: growth under 70% gives n, otherwise y.

Exercise: I'd appreciate it if you could say whether C=C(COC(C)=O)[C@H]1CC/C(C)=C/CC/C(C)=C/CC[C@@]2(C)O[C@H]2C1 has growth at least equal to 70%.
Solution: y

Exercise: Check if growth >= 70% (inclusive). Item: COc1ccc(-c2cnc(-c3ccncc3-c3cccc(OC)c3)o2)cc1
Solution: n

Exercise: For this compound, is measured growth 70% or higher? CCOc1cc(/C=N\NC(=O)C[N+](C)(C)C)ccc1O
Solution: y

Exercise: Is growth at least 70%? Consider COc1cc(C2CC(c3ccccc3)=NN2C=O)ccc1Oc1nc2c(c(=O)n(C)c(=O)n2C)n1C (stereo not given)
Solution: n
